FYI, the data here is from ChEMBL document CHEMBL5576149.

Reported bioavailability values for a set of molecules
Assay Overview: Bioavailability in CD1 mouse at 2 mg/kg,po or 1 mg/kg,iv administrated upto 60 mins by LC-MS/MS analysis
Format: ADME, organism-based
Conditions Used: in vivo
Lab book: enter the figure in %, no units written.

Some solved cases for reference:
Smiles Entry: CN(C)S(=O)(=O)c1ccc(N2CC[C@H](O)C2)c(-c2cc3ccccc3[nH]2)c1
bioavailability (%): 28

Smiles Entry: CCS(=O)(=O)c1ccc(N2CC[C@H](O)C2)c(-c2cc3ccccc3[nH]2)c1
bioavailability (%): 33

Smiles Entry: C[S@@](=N)(=O)c1ccc(N2CC[C@H](O)C2)c(-c2cc3ccccc3[nH]2)c1
bioavailability (%): 62

Kindly review the next molecule as well.
# get_value(readout='bioavailability', item= CN(C)S(=O)(=O)c1ccc(N2CCCC2)c(-c2cc3ccccc3[nH]2)c1 )
2
